// provenance: the supplement of paper PMC11061612

Test system: L-1236 (Hodgkin's Lymphoma)
measurementProtocol: combination Emax (second highest fraction inhibited in the dose matrix, 72 h); higher = more inhibition; extreme values may be limits of the assay
Note to self: values exactly at 0.7 are t. So combination Emax at or above 0.7 is t, below is f.

Please tell me: is the compound Cc1c2c(nn1C)CSCc1cc(n(C)n1)CSc1cc(c3ccccc3c1)OCCCc1c(C(=O)O)n(C)c3c-2c(Cl)ccc13 [AZD5991] + CCN(CCO)CCCOc1ccc2c(Nc3cc(CC(=O)Nc4cccc(F)c4)[nH]n3)ncnc2c1 [AZD2811] (first compound max 1 µM, 7x7, partner max 1 µM) at or over 0.7 in terms of combination Emax? f

Please tell me: is the compound CC1(C)CCC(CN2CCN(c3ccc(C(=O)NS(=O)(=O)c4ccc(NCC5CCOCC5)c([N+](=O)[O-])c4)c(Oc4cnc5[nH]ccc5c4)c3)CC2)=C(c2ccc(Cl)cc2)C1 [Venetoclax] + Cn1cnc2c(F)c(Nc3ccc(Br)cc3Cl)c(C(=O)NOCCO)cc21 [Selumetinib] (first compound max 1 µM, 7x7, partner max 3 µM) at or over 0.7 in terms of combination Emax? t

Please tell me: is the compound Cc1c2c(nn1C)CSCc1cc(n(C)n1)CSc1cc(c3ccccc3c1)OCCCc1c(C(=O)O)n(C)c3c-2c(Cl)ccc13 [AZD5991] + CC(=O)O[C@H]1C(=O)[C@@]2(C)[C@H]([C@H](OC(=O)c3ccccc3)[C@]3(O)C[C@H](OC(=O)[C@H](O)[C@@H](NC(=O)c4ccccc4)c4ccccc4)C(C)=C1C3(C)C)[C@]1(OC(C)=O)CO[C@@H]1C[C@@H]2O [Paclitaxel] (first compound max 1 µM, 7x7, partner max 3 µM) at or over 0.7 in terms of combination Emax? t

Please tell me: is the compound C[C@@H]1COCCN1c1cc(C2([S@](C)(=N)=O)CC2)nc(-c2ccnc3[nH]ccc23)n1 [AZD6738] + Nc1ccn([C@@H]2O[C@H](CO)[C@@H](O)C2(F)F)c(=O)n1 [Gemcitabine] (first compound max 10 µM, 7x7, partner max 0.3 µM) at or over 0.7 in terms of combination Emax? t

Please tell me: is the compound COc1cc2c(cc1OCCCCCOc1cc3c(cc1OC)C(=O)N1C=C(C)C[C@H]1C=N3)N=C[C@@H]1CC(C)=CN1C2=O [SG3199] + O=C(c1cc(Cc2n[nH]c(=O)c3ccccc23)ccc1F)N1CCN(C(=O)C2CC2)CC1 [Olaparib] (first compound max 0.001 µM, 7x7, partner max 10 µM) at or over 0.7 in terms of combination Emax? f

Please tell me: is the compound N#Cc1cnc(Nc2cc(NC[C@H]3CNCCO3)c(C(F)(F)F)cn2)cn1 [SRA737] + Nc1ccn([C@@H]2O[C@H](CO)[C@@H](O)C2(F)F)c(=O)n1 [Gemcitabine] (first compound max 10 µM, 7x7, partner max 0.3 µM) at or over 0.7 in terms of combination Emax? t

* * *

Assignment: determine reported Bliss excess for the given compounds.
System: NCI-H23 (Lung Adenocarcinoma);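 note: after 72 h of two-drug dosing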
measurementProtocol: Bliss excess, mean over the matrix (fraction); higher = more synergy
Reply briefly: the number, and no unit.

Return the recorded Bliss excess value; entry: CC1(C)CCC(CN2CCN(c3ccc(C(=O)NS(=O)(=O)c4ccc(NCC5CCOCC5)c([N+](=O)[O-])c4)c(Oc4cnc5[nH]ccc5c4)c3)CC2)=C(c2ccc(Cl)cc2)C1 [Venetoclax] + C[C@@H]1COCCN1C2=NC(=NC(=C2)C3(CC3)[S@](=N)(=O)C)C4=C5C=CNC5=NC=C4 [AZD6738] (first compound max 1 µM, 7x7, partner max 10 µM) 0.0157

Return the recorded Bliss excess value; entry: CN(CCO)CC[C@H](CSc1ccccc1)Nc1ccc(S(=O)(=O)NC(=O)c2ccc(N3CCC([C@@H](O)c4ccccc4-c4ccc(Cl)cc4)CC3)cc2)cc1S(=O)(=O)C(F)(F)F [AZD4320] + CN(C)CCCOc1ccc(-c2ccc3ncc4c(c3c2)n(C2CCOCC2)c(=O)n4C)cn1 [AZD0156] (first compound max 1 µM, 7x7, partner max 1 µM) -0.0118

Return the recorded Bliss excess value; entry: CC(=O)c1c(C)c2cnc(Nc3ccc(N4CCNCC4)cn3)nc2n(C2CCCC2)c1=O [Palbociclib] + CC1(C)CCC(CN2CCN(c3ccc(C(=O)NS(=O)(=O)c4ccc(NCC5CCOCC5)c([N+](=O)[O-])c4)c(Oc4cnc5[nH]ccc5c4)c3)CC2)=C(c2ccc(Cl)cc2)C1 [Venetoclax] (first compound max 10 µM, 7x7, partner max 1 µM) -0.0199

Return the recorded Bliss excess value; entry: COc1nnc2ccc(N3CCC(c4ccc(OCCN5CCN(C)C(=O)[C@H]5C)cc4)CC3)nn12 [AZD5153] + CCN(CCO)CCCOc1ccc2c(Nc3cc(CC(=O)Nc4cccc(F)c4)[nH]n3)ncnc2c1 [AZD2811] (first compound max 1 µM, 7x7, partner max 1 µM) -0.0412

Return the recorded Bliss excess value; entry: COc1nnc2ccc(N3CCC(c4ccc(OCCN5CCN(C)C(=O)[C@H]5C)cc4)CC3)nn12 [AZD5153] + C[C@@H]1COCCN1C2=NC(=NC(=C2)C3(CC3)[S@](=N)(=O)C)C4=C5C=CNC5=NC=C4 [AZD6738] (first compound max 1 µM, 7x7, partner max 10 µM) -0.0105

Return the recorded Bliss excess value; entry: Cc1cc2ncnn2cc1Nc1ncc2c(n1)n(C1CCOCC1)c(=O)n2C [AZD7648] + O=C(c1cc(Cc2n[nH]c(=O)c3ccccc23)ccc1F)N1CCN(C(=O)C2CC2)CC1 [Olaparib] (first compound max 10 µM, 7x7, partner max 10 µM) -0.0059

Return the recorded Bliss excess value; entry: CC1(C)CCC(CN2CCN(c3ccc(C(=O)NS(=O)(=O)c4ccc(NCC5CCOCC5)c([N+](=O)[O-])c4)c(Oc4cnc5[nH]ccc5c4)c3)CC2)=C(c2ccc(Cl)cc2)C1 [Venetoclax] + Cc1cc2ncnn2cc1Nc1ncc2c(n1)n(C1CCOCC1)c(=O)n2C [AZD7648] (first compound max 1 µM, 7x7, partner max 10 µM) -0.0172
